B1: STK38L (parent)
chain: FCIDSENRIGNSGVEEIKGHPFFE

Variants of: B1
Assay: protein stability index of a GFP-peptide fusion (GPS, HEK-293T) (PSI 1-6); higher = more stable;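 further: lentivirally expressed fusions sorted by FACS into six bins by GFP to DsRed ratio, PSI derived from sequencing read proportions per bin multiplied by bin number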
Conditions: c terminus: a fixed tail appended
protein stability index reference
API doc: respond with a numeric literal and nothing else, no unit.

Illustrative cases are given below, each with its answer.
QUERY: Hello, please tell me recorded protein stability index for this one: `K18A`
RESULT: 2.48

QUERY: Please give the documented protein stability index of `E6A`
RESULT: 1.37

QUERY: Give protein stability index for `E24S`
RESULT: 2.15

QUERY: State its protein stability index: `E15L`
RESULT: 1.9

Now consider the entry below.
QUERY: Consider the variant `S5L` . State its measured protein stability index.
RESULT: 1.06
